- Assay Text: Inhibition of Aspergillus niger amyloglucosidase assessed as reduction of p-nitrophenol release using p-nitrophenyl-glycoside as substrate by spectrophotometric analysis
Endpoint: pIC50
Scale: negative log10 of molar concentration, which is what pIC50 denotes.

Given the entry OC[C@H]1NC[C@@H](O)[C@@H]1O , report its measured pIC50.
3.45

====

- Target Desc: Tissue alpha-L-fucosidase (Bos taurus) (UniProt Q2KIM0)
- Sequence (Q2KIM0 whole entry): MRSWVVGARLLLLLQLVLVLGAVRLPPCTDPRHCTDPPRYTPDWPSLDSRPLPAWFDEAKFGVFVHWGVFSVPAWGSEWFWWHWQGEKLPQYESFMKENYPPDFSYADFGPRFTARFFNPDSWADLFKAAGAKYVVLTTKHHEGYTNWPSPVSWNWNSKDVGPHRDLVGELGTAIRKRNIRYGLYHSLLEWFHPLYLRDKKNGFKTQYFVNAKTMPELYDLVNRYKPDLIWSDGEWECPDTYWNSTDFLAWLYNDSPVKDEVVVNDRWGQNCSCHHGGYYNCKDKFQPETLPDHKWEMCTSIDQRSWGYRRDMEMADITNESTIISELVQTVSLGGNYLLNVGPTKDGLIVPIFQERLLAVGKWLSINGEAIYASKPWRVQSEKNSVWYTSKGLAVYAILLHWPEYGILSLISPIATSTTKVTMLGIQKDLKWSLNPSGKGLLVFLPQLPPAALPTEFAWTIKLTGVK
- Assay Text: Inhibition of bovine kidney alpha-L-fucosidase assessed as reduction of p-nitrophenol release using p-nitrophenyl-glycoside as substrate at 1000 uM by spectrophotometric analysis
- Type: tissue-based
Catalogue of compounds with associated inhibition
Report the figure in % without appending any unit label.

These solved cases illustrate the format of a correct answer.
[
  {
    "Compound": "OC[C@@H]1NCC(O)C1O (single isomer, unassigned)",
    "Target Desc": "Tissue alpha-L-fucosidase (Bos taurus) (UniProt Q2KIM0)",
    "Endpoint": "inhibition",
    "Display Unit": "%",
    "Reported Value": 13.3
  },
  {
    "Compound": "O[C@H]1[C@H](O)CN[C@@H]1c1ccc(F)cc1",
    "Target Desc": "Tissue alpha-L-fucosidase (Bos taurus) (UniProt Q2KIM0)",
    "Endpoint": "inhibition",
    "Display Unit": "%",
    "Reported Value": 0
  }
]

Given the compound Cc1ccc([C@H]2NC[C@@H](O)[C@@H]2O)cc1 , what is its reported inhibition?
4.2

Subsequent entry: Cc1ccc([C@@H]2NC[C@H](O)[C@H]2O)cc1
0

Request: O[C@H]1[C@H](O)CN[C@@H]1c1ccc(-c2ccccc2)cc1
0

// next record O[C@H]1[C@H](CCCc2ccccc2)NC[C@@H]1O
0
